TESTED_TARGET: T1, TRAIL (TNFSF10) ectodomain (UniProt P50591 39-281, limits assumed)
T1 construct: extracellular domain; also called endogenous TRAIL; TRAIL ectodomain
T1 sequence (P50591 39-281 limits assumed): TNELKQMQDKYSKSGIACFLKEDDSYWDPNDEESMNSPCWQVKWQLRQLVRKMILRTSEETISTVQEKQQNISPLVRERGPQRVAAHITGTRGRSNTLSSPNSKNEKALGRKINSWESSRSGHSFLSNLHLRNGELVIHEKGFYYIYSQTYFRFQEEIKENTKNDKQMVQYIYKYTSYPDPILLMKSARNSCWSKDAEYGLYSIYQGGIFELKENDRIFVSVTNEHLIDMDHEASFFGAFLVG
TEST_NAME: SPR, mutant TRAIL-R2-Fc captured, TRAIL as analyte
OBSERVATION_TYPE: binding result

INSERT INTO results (binder, meas_value) VALUES
  ('TRAIL-R2-Fc L110A/L114A (Fc fusion, human, not shown: a dimerising Fc or GST, range 58-184; also called L110/L114) QQDLAPQQRAAPQQKRSSPSEGLCPPGHHISEDGRDCISCKYGQDYSTHWNDALFCARCTRCDSGEVELSPCTTTRNTVCQCEEGTFREEDSPEMCRKCRTGCPRGMVKVGDCTPWSDIECVHKESGLVPRGS', 'no binding'),
  ('TRAIL-R2-Fc M152A/R154A/K155A (Fc fusion, human, not shown: a dimerising Fc or GST, range 58-184; also called M152/R154/K155) QQDLAPQQRAAPQQKRSSPSEGLCPPGHHISEDGRDCISCKYGQDYSTHWNDLLFCLRCTRCDSGEVELSPCTTTRNTVCQCEEGTFREEDSPEACAACRTGCPRGMVKVGDCTPWSDIECVHKESGLVPRGS', 'no binding'),
  ('TRAIL-R2-Fc Y103A/R133A (Fc fusion, human, not shown: a dimerising Fc or GST, range 58-184; also called Y103/R133) QQDLAPQQRAAPQQKRSSPSEGLCPPGHHISEDGRDCISCKYGQDASTHWNDLLFCLRCTRCDSGEVELSPCTTTANTVCQCEEGTFREEDSPEMCRKCRTGCPRGMVKVGDCTPWSDIECVHKESGLVPRGS', 'no binding'),
  ('TRAIL-R2-Fc Y103A/N134A (Fc fusion, human, not shown: a dimerising Fc or GST, range 58-184; also called Y103/N134) QQDLAPQQRAAPQQKRSSPSEGLCPPGHHISEDGRDCISCKYGQDASTHWNDLLFCLRCTRCDSGEVELSPCTTTRATVCQCEEGTFREEDSPEMCRKCRTGCPRGMVKVGDCTPWSDIECVHKESGLVPRGS', 'no binding');
